Hello, the source for this data is patent US11174268B2, in case you need it.

target: NaV1.6 (Homo sapiens (Human), UniProt Q9UQD0); assay: Sodium Influx Assay (Flux), NaV1.6; assay type: cell-based; details: Trex HEK293 cells, ANG2 dye, inactivated state;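 note: Tetracycline-induced cells, compounds applied for one hour at room temperature with modulators holding channels open, IC50 from percent inhibition of sodium influx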
Counter-ions that a name gives are not always drawn.
measure-name: IC50 (nM)

compound=O=S(=O)(Nc1cccnn1)c1cc(Cl)c(NCc2c(F)cccc2CN2CCC2)cc1F val=1880

A. O=S(=O)(Nc1cscn1)c1ccc(NCc2c(F)ccc(F)c2CN2CCC2)c(F)c1F [Example 213, 2,2,2-trifluoroacetate]
B. Cc1cccc(Cl)c1CNc1cc(F)c(S(=O)(=O)Nc2cscn2)cc1Cl
C. C[C@H](Oc1cc(F)c(S(=O)(=O)Nc2nccs2)cc1F)c1ccccc1F
D. CC1CN(Cc2cccc(F)c2CNc2cc(F)c(S(=O)(=O)Nc3cscn3)c(F)c2)C1 [Example 164, formate]
E. O=S(=O)(Nc1cccc(F)n1)c1cc(Cl)c(NCc2c(F)ccc(F)c2CN2CCC2)cc1F
Q. Order the entries by their reported IC50, beginning at the minimum. To answer, write out the labels according to the requested order.
A. D, A, E, C, B

###

target: NaV1.1 (Homo sapiens (Human)); test: Sodium Influx Assay (Flux), NaV1.1; assay type: cell-based; details: Trex HEK293 cells, ANG2 dye, inactivated state;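 note: channels co-expressed with human β1 subunit and held open by modulators, cells exposed to compounds for one hour at room temperature, IC50 from percent inhibition of influx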
pIC50: −log10 of the molar value. Counter-ions that a name gives are not always drawn.
measure-name: pIC50

A. CC(C)CN(C)Cc1cccc(F)c1CNc1cc(F)c(S(=O)(=O)Nc2cscn2)c(F)c1
B. CC(C)CC(Nc1cc(F)c(S(=O)(=O)Nc2nccs2)cc1Cl)c1ccccc1 (centres unmarked)
Q. Name the one with the greater pIC50 value, either A or B as given. Selection: enter the item's label.
A. B
(B: 5.60, A: 4.97)

I. O=S(=O)(Nc1cscn1)c1cc(Cl)c(NCc2c(F)ccc(F)c2CO)cc1F
II. C[C@@H](Oc1cc(F)c(S(=O)(=O)Nc2nccs2)cc1Cl)c1ccccc1F
Q. From the items above, decide which of I and II has the lower pIC50 reading. Selection: enter the item's label.
A. I

a. O=S(=O)(Nc1nccs1)c1cc(Cl)c(N[C@H]2CCCc3ccccc32)cc1F
b. O=S(=O)(Nc1cscn1)c1cc(Cl)c(NCc2c(F)cccc2CN2CC(F)C2)cc1F
c. O=S(=O)(Nc1cscn1)c1cc(Cl)c(NCc2c(F)ccc3cn[nH]c23)cc1F [Example 334, formate]
d. Cc1c(NCc2c(F)cccc2CN2CC(F)C2)ccc(S(=O)(=O)Nc2cscn2)c1F
Q. Order the entries by their reported pIC50, beginning at the minimum. To answer, write out the labels according to the requested order.
A. b, d, c, a

###

# IC50 per entry
target: NaV1.5 (Homo sapiens (Human), UniProt Q14524); assay: Sodium Influx Assay (Flux), NaV1.5; conditions: read-out: Flux NaV1.5 IC50; Trex HEK293 cells, ANG2 dye, inactivated state
Sequence (Q14524 other isoform, or with tags, fused parts or gaps): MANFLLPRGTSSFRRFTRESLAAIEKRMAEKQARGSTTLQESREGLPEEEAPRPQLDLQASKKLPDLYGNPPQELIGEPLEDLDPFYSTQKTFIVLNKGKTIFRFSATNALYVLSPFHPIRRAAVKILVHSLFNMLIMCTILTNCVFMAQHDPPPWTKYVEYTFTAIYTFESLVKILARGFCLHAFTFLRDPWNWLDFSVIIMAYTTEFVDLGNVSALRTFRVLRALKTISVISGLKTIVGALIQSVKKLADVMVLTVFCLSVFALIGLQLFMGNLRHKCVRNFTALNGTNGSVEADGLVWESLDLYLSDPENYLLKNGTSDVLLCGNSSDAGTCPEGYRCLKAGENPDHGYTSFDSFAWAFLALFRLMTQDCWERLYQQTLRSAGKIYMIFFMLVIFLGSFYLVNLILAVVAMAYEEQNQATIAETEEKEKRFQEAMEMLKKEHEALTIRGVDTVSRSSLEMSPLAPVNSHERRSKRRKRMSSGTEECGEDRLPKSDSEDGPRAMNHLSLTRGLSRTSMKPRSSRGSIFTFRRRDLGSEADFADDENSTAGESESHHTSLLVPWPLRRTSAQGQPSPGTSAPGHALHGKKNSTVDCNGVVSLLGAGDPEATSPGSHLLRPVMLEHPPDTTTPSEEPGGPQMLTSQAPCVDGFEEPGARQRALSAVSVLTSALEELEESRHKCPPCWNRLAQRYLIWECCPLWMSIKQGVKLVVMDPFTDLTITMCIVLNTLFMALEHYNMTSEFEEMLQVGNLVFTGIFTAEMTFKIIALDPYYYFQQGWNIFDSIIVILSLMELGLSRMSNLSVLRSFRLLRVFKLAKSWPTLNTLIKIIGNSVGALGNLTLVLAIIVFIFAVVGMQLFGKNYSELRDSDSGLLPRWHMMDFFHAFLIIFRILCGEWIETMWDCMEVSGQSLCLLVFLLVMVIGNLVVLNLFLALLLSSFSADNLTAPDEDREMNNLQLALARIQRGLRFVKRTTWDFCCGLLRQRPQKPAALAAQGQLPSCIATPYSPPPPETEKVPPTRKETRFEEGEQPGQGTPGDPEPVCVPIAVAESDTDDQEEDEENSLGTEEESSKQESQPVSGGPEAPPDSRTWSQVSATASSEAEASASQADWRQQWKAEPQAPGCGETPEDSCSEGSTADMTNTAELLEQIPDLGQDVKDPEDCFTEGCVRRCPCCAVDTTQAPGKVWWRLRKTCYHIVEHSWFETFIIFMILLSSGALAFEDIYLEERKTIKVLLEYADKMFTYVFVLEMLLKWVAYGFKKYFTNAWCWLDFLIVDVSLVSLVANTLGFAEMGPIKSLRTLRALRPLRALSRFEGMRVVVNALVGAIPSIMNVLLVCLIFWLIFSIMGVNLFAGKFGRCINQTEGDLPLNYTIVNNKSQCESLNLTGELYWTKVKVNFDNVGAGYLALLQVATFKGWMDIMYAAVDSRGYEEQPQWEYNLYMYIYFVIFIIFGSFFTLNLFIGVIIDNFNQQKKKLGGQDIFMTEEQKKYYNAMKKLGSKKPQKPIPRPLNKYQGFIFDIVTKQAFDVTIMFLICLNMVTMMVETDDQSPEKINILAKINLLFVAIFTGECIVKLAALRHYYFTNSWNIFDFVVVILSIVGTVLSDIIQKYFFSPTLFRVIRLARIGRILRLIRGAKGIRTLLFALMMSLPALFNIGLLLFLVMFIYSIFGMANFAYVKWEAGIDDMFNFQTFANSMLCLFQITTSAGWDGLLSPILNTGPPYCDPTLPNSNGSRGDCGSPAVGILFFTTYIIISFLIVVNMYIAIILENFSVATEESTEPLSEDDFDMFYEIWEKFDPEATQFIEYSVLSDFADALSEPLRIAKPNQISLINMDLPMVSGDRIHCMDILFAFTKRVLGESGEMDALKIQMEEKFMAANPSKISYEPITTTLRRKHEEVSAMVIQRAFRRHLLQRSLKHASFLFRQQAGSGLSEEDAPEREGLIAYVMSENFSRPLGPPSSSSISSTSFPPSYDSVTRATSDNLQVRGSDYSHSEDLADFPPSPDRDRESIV
Structures can show the parent of a compound that is named as a salt.
Numeric answer only, unit µM assumed.

// solved cases for IC50 follow
compound=CC[C@H](Nc1cc(F)c(S(=O)(=O)Nc2ncc(F)s2)cc1Cl)c1ccccc1 measure_name=IC50 val=12.5
compound="CC(CNc1ccc(S(=O)(=O)Nc2ncns2)cc1Cl)c1ccccc1 (centres unmarked)" measure_name=IC50 val=4.91
compound=O=S(=O)(Nc1ncns1)c1ccc(N[C@H]2CCc3ccccc32)c(Cl)c1 measure_name=IC50 val=5.12
compound=O=S(=O)(Nc1cccnn1)c1cc(Cl)c(NCc2c(F)cccc2CN2CCC2)cc1F measure_name=IC50 val=30
compound=C[C@H](Oc1cc(F)c(S(=O)(=O)Nc2cscn2)cc1Cl)c1ccccc1F measure_name=IC50 val=4.66

Q. Which IC50 reading was recorded for the compound O=S(=O)(Nc1nccs1)c1cc(Cl)c(N[C@H](CN2CC(F)(F)C2)c2ccccc2)cc1F ?
A. 7.66

Q. // query: C[C@H](Oc1cc(F)c(S(=O)(=O)Nc2nccs2)cc1Cl)c1ccccc1
A. 9.93

Q. // query: C[C@H](Nc1cc(F)c(S(=O)(=O)Nc2cscn2)cc1Cl)c1cc(OCC2(C)COC2)ccc1F
A. 30

Q. // query: O=S(=O)(Nc1cscn1)c1cc(Cl)c(OC2CCc3c2cccc3C(F)(F)F)cc1F (centres unmarked)
A. 24.6

Q. // query: O=S(=O)(Nc1cscn1)c1c(F)cc(NCc2cccc(F)c2CN2CCC2)c(Cl)c1F [Example 197, 2,2,2-trifluoroacetate]
A. 27.6

Q. // query: O=S(=O)(Nc1cscn1)c1c(F)cc(NCc2c(F)cccc2CN2CC(F)C2)cc1F [Example 194, formate]
A. 30

Q. // query: CC1(F)CN(Cc2cccc(F)c2CNc2cc(F)c(S(=O)(=O)Nc3cscn3)c(F)c2)C1 [Example 180, formate]
A. 24.2

Q. // query: O=S(=O)(Nc1cscn1)c1cc(Cl)c(NCc2cccc3ccncc23)cc1F [Example 96, 2,2,2-trifluoroacetate]
A. 16

Q. // query: CC1CN(Cc2cccc(F)c2CNc2cc(F)c(S(=O)(=O)Nc3cscn3)c(F)c2)C1 [Example 164, formate]
A. 20.3
